tested on: MOLT-4; test: Cell viability assay (MTS) in MOLT-4 cells; assay type: cell-based; conditions: Homo sapiens, MOLT-4; Table 2A; 48 hr; MTS; read-out: Anti-Cancer Activity IC50 (48 hr) MOLT-4
Overview of recorded IC50 for various compounds

Answered examples (3):
INSERT INTO measurements (smilestext, property, recordedvalue) VALUES
  ('Cc1ncsc1-c1ccc([C@H](C)NC(=O)[C@@H]2C[C@@H](O)CN2C(=O)[C@@H](NC(=O)CN(C)CCC(=O)N2CCC(C3CCN(C[C@]4(C)CCC(c5ccc(Cl)cc5)=C(CN5CCN(c6ccc(C(=O)NS(=O)(=O)c7ccc(N[C@H](CCN8CCCOCC8)CSc8ccccc8)c(S(=O)(=O)C(F)(F)F)c7)cc6)CC5)C4)CC3)CC2)C(C)(C)C)cc1', 'IC50', '20 to 100 nM'),
  ('Cc1ncsc1-c1ccc([C@H](C)NC(=O)[C@@H]2C[C@@H](O)CN2C(=O)[C@@H](NC(=O)CCCCC(=O)N2CCC(C3CCN(C[C@]4(C)CCC(c5ccc(Cl)cc5)=C(CN5CCN(c6ccc(C(=O)NS(=O)(=O)c7ccc(N[C@H](CCN8CCCOCC8)CSc8ccccc8)c(S(=O)(=O)C(F)(F)F)c7)cc6)CC5)C4)CC3)CC2)C(C)(C)C)cc1', 'IC50', '< 20 nM'),
  ('Cc1ncsc1-c1ccc([C@H](C)NC(=O)[C@@H]2C[C@@H](O)CN2C(=O)[C@@H](NC(=O)COCCCNC(=O)c2ccc(N3CCN(C[C@]4(C)CCC(c5ccc(Cl)cc5)=C(CN5CCN(c6ccc(C(=O)NS(=O)(=O)c7ccc(N[C@H](CCN8CCCOCC8)CSc8ccccc8)c(S(=O)(=O)C(F)(F)F)c7)cc6)CC5)C4)CC3)nn2)C(C)(C)C)cc1', 'IC50', '< 20 nM');

q: Request body: readout IC50, system MOLT-4, query Cc1ncsc1-c1ccc([C@H](C)NC(=O)[C@@H]2C[C@@H](O)CN2C(=O)[C@@H](NC(=O)CCCCC(=O)N2CCC(N3CCN(C[C@]4(C)CCC(c5ccc(Cl)cc5)=C(CN5CCN(c6ccc(C(=O)NS(=O)(=O)c7ccc(N[C@H](CCN8CCCOCC8)CSc8ccccc8)c(S(=O)(=O)C(F)(F)F)c7)cc6)CC5)C4)CC3)CC2)C(C)(C)C)cc1 . Return the value.
a: < 20 nM

* * *

tested on: RS4; 11; test: Cell viability assay (MTS) in RS4; 11 cells; format: cell-based; settings: Homo sapiens, RS4-11; Table 2; 48 hr; MTS; read-out: Anti-Cancer Activity IC50 (48 hr) RS4; 11
Overview of recorded IC50 for various compounds

INSERT INTO assay_data (compound, property, recordedvalue) VALUES
  ('CCN(CCO)CC[C@H](CSc1ccccc1)Nc1ccc(S(=O)(=O)NC(=O)c2ccc(N3CCN(CC4=C(c5ccc(Cl)cc5)CCC(C)(CN5CCN(C(=O)CCCCCCC(=O)N[C@H](C(=O)N6C[C@H](O)C[C@H]6C(=O)N[C@@H](C)c6ccc(-c7scnc7C)cc6)C(C)(C)C)CC5)C4)CC3)cc2)cc1S(=O)(=O)C(F)(F)F (some centres unmarked) [Compound 63]', 'IC50', '< 20 nM');

API: the following record is the query input.
q: Suppose we examine the compound Cc1ncsc1-c1ccc([C@H](C)NC(=O)[C@@H]2C[C@@H](O)CN2C(=O)[C@@H](NC(=O)CCCCCCC(=O)N2CCN(C[C@]3(C)CCC(c4ccc(Cl)cc4)=C(CN4CCN(c5ccc(C(=O)NS(=O)(=O)c6ccc(N[C@H](CCN7CCCCC7)CSc7ccccc7)c(S(=O)(=O)C(F)(F)F)c6)cc5)CC4)C3)CC2)C(C)(C)C)cc1 [Compound 58] ; what IC50 value has been reported?
a: < 20 nM
